The reported measurements were obtained from ChEMBL document CHEMBL1201862.

- System: OVCAR-5
- protocol-text: NCI tumour cell line growth inhibition, 48 h
Calls of active or inactive are those of the source. No stated cut-off is given here; in the data, active = GI50 up to about 1.1 µM and inactive = higher.

- compound: "N#C/C(=C/n1c(=S)[nH]c2ccc([N+](=O)[O-])cc21)C(N)=O"
  GI50: "> 100 µM (inactive)"
- compound: "Oc1ccc2ccccc2c1/N=N/c1ccccc1"
  GI50: "> 100 µM (inactive)"
- compound: "S=c1[nH]c2c(Cl)c(Cl)c(Cl)c(Cl)c2[nH]1"
  GI50: "25.8 µM (inactive)"
- compound: "C/N=C(\\N=c1/ss/c(=N\\C)n1C)N(C)C.[O-][Cl+3]([O-])([O-])O"
  GI50: "> 100 µM (inactive)"
- compound: "CCOC(=O)[C@H]1C[C@@H](C(=O)c2ccccc2)N2N=C(c3ccc(Br)cc3)C=C[C@H]12"
  GI50: "> 100 µM (inactive)"
- compound: "O=C1C(Br)=C(c2ccccc2)O/C1=C/C(=O)c1ccc(Br)cc1"
  GI50: "> 100 µM (inactive)"
- compound: "N#Cc1c(OCCF)c2ccccc2n2c1nc1ccccc12"
  GI50: "> 100 µM (inactive)"
- compound: "COc1ccc(-n2c(Cn3nnc(-c4cccnc4)n3)nn(C3OC(COC(=O)c4ccccc4)C(OC(=O)c4ccccc4)C3OC(=O)c3ccccc3)c2=S)cc1 (stereo not drawn)"
  GI50: "> 100 µM (inactive)"
- compound: "CC1(C)C2CCC1(CC(=O)O)C(Cl)C2 (stereo not drawn)"
  GI50: "> 100 µM (inactive)"
- compound: "CCN(CC)CC1CCCCN1CC(=O)N1c2ccccc2NC(=O)CC1C (stereo not drawn)"
  GI50: "> 100 µM (inactive)"
- compound: "Cc1[nH]c2ccccc2c1C(=O)CC1(O)C(=O)Nc2ccccc21 (stereo not drawn)"
  GI50: "> 100 µM (inactive)"
- compound: "O=C(O)COc1cccc2ccccc(=O)c12"
  GI50: "> 100 µM (inactive)"
- compound: "Nc1c(C(=O)O)nnc2cc(Cl)c(Cl)cc12"
  GI50: "> 100 µM (inactive)"
- compound: "CC1(C)[N+]([O-])=[N+]([O-])C1(C)O (stereo not drawn)"
  GI50: "> 100 µM (inactive)"
- compound: "CC(C)CSCC1OC(n2cnc3c(N)nccc32)C(O)C1O (stereo not drawn)"
  GI50: "> 100 µM (inactive)"
- compound: "Nn1c(-c2cccc(Cl)c2)nc2ccccc2c1=O"
  GI50: "> 100 µM (inactive)"
- compound: "CCN(CC)CCNC(=O)c1nn(-c2ccc(Cl)cc2)c2c1CCc1cc(OC)ccc1-2"
  GI50: "4.75 µM (inactive)"
- compound: "O=C1/C(=C/c2cccnc2)SC(=S)N1Cc1ccco1"
  GI50: "36.1 µM (inactive)"
- compound: "CC1=C(C(=O)CC(=O)C(=O)Nc2ccc(C)c(C)c2)Sc2ccccc2N1"
  GI50: "> 100 µM (inactive)"
- compound: "Cc1ccc(N2C(=O)C3CSCN3C2=O)cc1 (stereo not drawn)"
  GI50: "> 100 µM (inactive)"
- compound: "COc1cc2c(cc1OC)C(C(CO)CO)N(CC(O)CCl)CC2 (stereo not drawn)"
  GI50: "> 100 µM (inactive)"
- compound: "CC(C)=CCc1[nH]c2ccccc2c1C1=C(O)C(=O)C(c2c(CC=C(C)C)[nH]c3ccccc23)=C(O)C1=O"
  GI50: "2.89 µM (inactive)"
- compound: "COC(=O)N/N=C(\\c1ccccc1)c1ccc(OC)cc1"
  GI50: "> 100 µM (inactive)"
- compound: "Cc1nc2c3c(ccc2nc1O)C(=O)c1ccccc1C3=O"
  GI50: "> 100 µM (inactive)"
- compound: "COc1ccc(-c2cc3cc(Cl)cc(Cl)c3oc2=O)cc1OC"
  GI50: "> 100 µM (inactive)"
- compound: "Cn1cc2c3ccccc3nc-2c2ccccc21 [ISOCRYPTOLEPINE]"
  GI50: "2.14 µM (inactive)"
- compound: "Cn1c(=O)[nH]c2nccnc2c1=O"
  GI50: "> 10 µM (inactive)"
- compound: "CC(=O)Nc1ccc(-c2cc(C(=O)O)c3cc4ccccc4cc3n2)cc1"
  GI50: "> 100 µM (inactive)"
- compound: "COCCOCOC(C)(C)[C@H](CCOC(C)=O)O[Si](c1ccccc1)(c1ccccc1)C(C)(C)C"
  GI50: "16.8 µM (inactive)"
- compound: "Cc1ccc(S(=O)(=O)Nn2c(-c3ccccc3)c(C#N)c(-c3ccc(Cl)cc3)c(C#N)c2=O)cc1"
  GI50: "47 µM (inactive)"
- compound: "CO[C@@H](C(=O)OC1C=CC2(CC1)C(=O)N(C)c1ccccc12)c1ccccc1 (stereo partly drawn)"
  GI50: "> 100 µM (inactive)"
- compound: "CC(=O)OC1CC2C(C)(C)C(=O)C=C[C@]2(C)C2CCC3(C)C(c4ccoc4)[C@@H](O)[C@H]4O[C@]43[C@]12C (stereo partly drawn)"
  GI50: "25.9 µM (inactive)"
- compound: "COS(C)(=O)=O"
  GI50: "> 2 µM (inactive)"
